// data source = PubChem BioAssay (NCI)

- System: MDA-MB-435 melanoma
- PROTOCOL_SUMMARY: NCI-60 one-dose screen, 48 h (100 = growth as untreated, 0 = no growth, -100 = all killed)
- ASSAY_CONDITIONS: 10 µM
The panel holds about 83,000 compounds, 20% with a hit somewhere; the sample as a whole holds those more often.
Rule: growth of 80% or more gives YES; anything lower gives NO.

INSERT INTO assay_data (compound, label) VALUES
  ('COc1ccc(-c2nc(-c3nc4cc(Cl)c(Cl)cc4[nH]3)c3ccccn23)cc1', 'NO'),
  ('COc1cc(CNc2ccccc2C(=O)N2CCN(C(=O)c3cc(-c4cc(OC)c(OC)c(OC)c4)n4nc(-c5ccccc5)cc4n3)CC2)cc(OC)c1OC', 'NO'),
  ('COc1cc2cc3c(nc2cc1OC)CCN3Cc1ccc(NC(=O)Nc2cc(C(F)(F)F)cc(C(F)(F)F)c2)cc1', 'NO'),
  ('COc1cc(-c2cc(C(=O)N3CCN(C(=O)c4ccccc4NCc4cccs4)CC3)nc3cc(-c4ccccc4)nn23)cc(OC)c1OC', 'NO'),
  ('CN(C)c1ccc(Cc2ccc(N(C)C)cc2Cl)c(Cl)c1', 'YES'),
  ('O=C(Nc1ccc(Cl)cc1)N1NC(c2ccc(Cl)cc2)C=C1c1ccccc1 (stereo not drawn)', 'YES'),
  ('O=C(NC(Cc1ccc(O)cc1)C(=O)N=Nc1c(O)[nH]c2ccccc12)c1ccccc1 (stereo not drawn)', 'YES'),
  ('O=C(CC(C(=O)c1ccccc1)N1CCOCC1)c1ccccc1 (stereo not drawn)', 'YES'),
  ('O=C1C(c2ccccc2)C2C=CC(C2)N1O (stereo not drawn)', 'YES'),
  ('COc1cc(Cl)cc(-c2nn(-c3cccc(NC(=O)Nc4ccc(Cl)c(C(F)(F)F)c4)c3)cc2-c2ccncc2)c1', 'NO'),
  ('CCOC(=O)C(NC(=O)C(Cl)Cl)C(O)c1ccccc1 (stereo not drawn)', 'YES'),
  ('CN(C)c1ccc(/C=C/C=N/NC(=O)c2cc(O)c(O)c(O)c2)cc1', 'YES'),
  ('O=C(Nc1cccc(-n2cc(-c3ccncc3)c(-c3ccc(O)c(Cl)c3)n2)c1)c1ccc(N2CCOCC2)c(C(F)(F)F)c1', 'NO');
